Values were extracted from patent US11547681B2.

% Remaining of Initial (n = 1), 15 min for assorted molecules
Assay remarks: Plasma stability (37° C., pH 7.4), mouse
Assay type: in vitro ADME, CD-1 mouse
Experimental context: mouse plasma, test article 1 μM, 37° C., pH 7.4, 15 min
# number only, unit % dropped from output

Reference set, count: 3
molecule="CCCCCCCCCCCCCCCC(=O)NCCOC(=O)CCC(=O)OCC(COC(=O)CCCCCCC)OC(=O)CCCCCCC (stereo not shown) [Compound I-3, PEA-Succinate-Glycerol-Di-Caprylic]" unit_string=% reported=23
molecule="CCCCCCCCCCCCCCCC(=O)NCCOC(=O)CCC(=O)OCC(COC(=O)CCC)OC(=O)CCC (stereo not shown) [Compound I-11]" unit_string=% reported=2.9
molecule="CC/C=C\\C/C=C\\C/C=C\\C/C=C\\C/C=C\\CCCC(=O)OCCNC(=O)CCCCCCCCCCCCCCC [Compound I-5]" unit_string=% reported=109

Here's the next entry for you.
## Task Bench note: what % Remaining of Initial (n = 1), 15 min did CCCCC/C=C\C/C=C\CCCCCCCC(=O)OCCNC(=O)CCCCCCCCCCCCCCC [Compound I-6] show?
## Result 83

###

Assay remarks: in vitro
Experimental context: male, CD-1, mouse, s9, 10 min, 1 μM
Parameter: % Remaining of Initial (n = 1), 10 min (%)
# number only, unit % dropped from output

Reference set, count: 3
molecule="CCCCCCCCCCCCCCCC(=O)NCCOC(=O)CCC(=O)OCC(O)CO (stereo not shown) [Compound I-9]" parameter="% Remaining of Initial (n = 1), 10 min" reported=56
molecule="CCCCCCCCCCCCCCCC(=O)NCCOC(=O)CCC(=O)OC[C@H]1O[C@@](CO)(O[C@H]2O[C@H](CO)[C@@H](O)[C@H](O)[C@H]2O)[C@@H](O)[C@@H]1O [Compound I-7]" parameter="% Remaining of Initial (n = 1), 10 min" reported=59
molecule="CCCCC/C=C\\C/C=C\\CCCCCCCC(=O)OCCNC(=O)CCCCCCCCCCCCCCC [Compound I-6]" parameter="% Remaining of Initial (n = 1), 10 min" reported=62

## Task Bench note: what % Remaining of Initial (n = 1), 10 min did CC/C=C\C/C=C\C/C=C\C/C=C\C/C=C\CCCC(=O)OCCNC(=O)CCCCCCCCCCCCCCC [Compound I-5] show?
## Result 68

## Task Also CCCCCCCCCCCCCCCC(=O)NCCOC(=O)CCC(=O)OCC(COC(=O)CCCCCCC)OC(=O)CCCCCCC (stereo not shown) [Compound I-3, PEA-Succinate-Glycerol-Di-Caprylic] ?
## Result 68

###

Assay remarks: in vitro
Experimental context: male, Sprague-Dawley, rat, s9, CLint (mL/min/mg protein), calculated value in parentheses
Parameter: microsomal CLint at 1 μM (µL/min/mg)
# number only, unit µL/min/mg dropped from output

## Task Bench note: what microsomal CLint at 1 μM did CCCCC/C=C\C/C=C\CCCCCCCC(=O)OCCNC(=O)CCCCCCCCCCCCCCC [Compound I-6] show?
## Result 7.65

###

Assay remarks: in vitro
Experimental context: male, CD-1, mouse, 60 min, 1 μM
Parameter: Concentration (μM) of analyte PEA, 60 min (µM)
# number only, unit µM dropped from output

Reference set, count: 6
compound=CCCCCCCCCCCCCCCC(=O)NCCOC(=O)CCC(=O)OC[C@H]1O[C@@](CO)(O[C@H]2O[C@H](CO)[C@@H](O)[C@H](O)[C@H]2O)[C@@H](O)[C@@H]1O reported=0.38
compound=CCCCCCCCCCCCCCCC(=O)NCCOC(=O)CCC reported=0.45
compound="CCCCCCCCCCCCCCCC(=O)NCCOC(=O)CCC(=O)OCC(COC(=O)CCCCCCC)OC(=O)CCCCCCC (stereo not shown) [Compound I-3, PEA-Succinate-Glycerol-Di-Caprylic]" reported=0.043
compound="CCCCCCCCCCCCCCCC(=O)NCCOC(=O)CCC(=O)OCC(O)CO (stereo not shown)" reported=0.23
compound=CC/C=C\C/C=C\C/C=C\C/C=C\C/C=C\CCCC(=O)OCCNC(=O)CCCCCCCCCCCCCCC reported=0.14
compound=CCCCC/C=C\C/C=C\CCCCCCCC(=O)OCCNC(=O)CCCCCCCCCCCCCCC reported=0.17

Here's the next entry for you.
## Task Bench note: what Concentration (μM) of analyte PEA, 60 min did CCCCCCCCCCCCCCCC(=O)NCCOC(=O)CCC(=O)OCC(COC(=O)CCC)OC(=O)CCC (stereo not shown) show?
## Result 0.084
